Catalogue of MIC values
system: E. coli OC2605; experiment: MIC, microdilution broth method (NCCLS); format: cell-based; settings: A: E. coli OC2605, 35° C., 16-20 hours
Please state the figure in µg/mL; there is no need to write the unit.

These solved cases illustrate the format of a correct answer.
Molecule: CC[C@H]1OC(=O)[C@H](C)C(=O)[C@H](C)[C@@H](O[C@@H]2O[C@H](C)C[C@H](N(C)C)[C@H]2O)[C@](C)(OC(=O)NCc2ccc(-c3ccccn3)s2)C[C@@H](C)C(=O)[C@H](C)[C@H]2NC(=O)O[C@@]21C
Readout unit: µg/mL
MIC: 8

Molecule: CC[C@H]1OC(=O)[C@H](C)C(=O)[C@H](C)[C@@H](O[C@@H]2O[C@H](C)C[C@H](N(C)C)[C@H]2O)[C@](C)(OC(=O)NCc2ccc(-c3ccncn3)cc2)C[C@@H](C)C(=O)[C@H](C)[C@H]2NC(=O)O[C@@]21C
Readout unit: µg/mL
MIC: 8

Could you share which MIC value was measured for `CC[C@H]1OC(=O)[C@H](C)C(=O)[C@H](C)[C@@H](O[C@@H]2O[C@H](C)C[C@H](N(C)C)[C@H]2O)[C@](C)(OC(=O)NC/C=C/c2ccc(-n3cnnc3)cc2)C[C@@H](C)C(=O)[C@H](C)[C@H]2NC(=O)O[C@@]21C` ? 16

Could you share which MIC value was measured for CCC1OC(=O)C(C)(F)C(=O)C(C)C(OC2OC(C)CC(N(C)C)C2O)C(C)(OC(=O)NCC=Cc2ccc(-c3ncccn3)cc2)CC(C)C(=NO)C(C)C2NC(=O)OC12C (centres unmarked) ? 16

Could you share which MIC value was measured for CCC1OC(=O)C(C)(F)C(=O)C(C)C(OC2OC(C)CC(N(C)C)C2O)C(C)(OC(=O)NCC=Cc2ccc(-c3ccncn3)cc2)CC(C)C(=O)C(C)C2NC(=O)OC12C (centres unmarked) ? 16

Could you share which MIC value was measured for `CC[C@H]1OC(=O)[C@H](C)C(=O)[C@H](C)[C@@H](O[C@@H]2O[C@H](C)C[C@H](N(C)C)[C@H]2O)[C@](C)(OC(=O)NC/C=C/c2cccc(-c3ccccn3)c2)C[C@@H](C)C(=O)[C@H](C)[C@H]2NC(=O)O[C@@]21C` ? 8

----------
test system: E. coli OC2605; experiment: MIC, microdilution broth method (NCCLS); format: cell-based; settings: A: E. coli OC2605, 35° C., 16-20 hours
Catalogue of MIC values
Please state the figure in µg/mL; there is no need to write the unit.

These solved cases illustrate the format of a correct answer.
Substance smiles: CC[C@H]1OC(=O)[C@H](C)C(=O)[C@H](C)[C@@H](O[C@@H]2O[C@H](C)C[C@H](N(C)C)[C@H]2O)[C@](C)(OC(=O)NCc2ccc(-c3nccc(OC)n3)cc2)C[C@@H](C)C(=O)[C@H](C)[C@H]2NC(=O)O[C@@]21C
Study system: E. coli OC2605
MIC [µg/mL]: 16

Substance smiles: CC[C@H]1OC(=O)[C@H](C)C(=O)[C@H](C)[C@@H](O[C@@H]2O[C@H](C)C[C@H](N(C)C)[C@H]2O)[C@](C)(OC(=O)NC/C=C/c2cccc3cccnc23)C[C@@H](C)C(=O)[C@H](C)[C@H]2NC(=O)O[C@@]21C
Study system: E. coli OC2605
MIC [µg/mL]: 16

Substance smiles: CC[C@H]1OC(=O)[C@H](C)C(=O)[C@H](C)[C@@H](O[C@@H]2O[C@H](C)C[C@H](N(C)C)[C@H]2O)[C@](C)(OC(=O)NC/C=C/c2ccc(-n3ccnn3)cc2)C[C@@H](C)C(=O)[C@H](C)[C@H]2NC(=O)O[C@@]21C
Study system: E. coli OC2605
MIC [µg/mL]: 8

Substance smiles: CC[C@H]1OC(=O)[C@H](C)C(=O)[C@H](C)[C@@H](O[C@@H]2O[C@H](C)C[C@H](N(C)C)[C@H]2O)[C@](C)(OC(=O)NCc2cnn(-c3ccccc3)c2)C[C@@H](C)C(=O)[C@H](C)[C@H]2NC(=O)O[C@@]21C
Study system: E. coli OC2605
MIC [µg/mL]: 16

Then this compound:
Observed MIC on E. coli OC2605 for `CC[C@H]1OC(=O)[C@H](C)C(=O)[C@H](C)[C@@H](O[C@@H]2O[C@H](C)C[C@H](N(C)C)[C@H]2O)[C@](C)(OC(=O)NCc2ccc(-c3ccc([N+](=O)[O-])cn3)cc2)C[C@@H](C)C(=O)[C@H](C)[C@H]2NC(=O)O[C@@]21C` , please. 16

----------
tested on: E. coli OC2605; assay: MIC, microdilution broth method (NCCLS); format: cell-based; conditions: A: E. coli OC2605, 35° C., 16-20 hours
Recorded metric: MIC (µg/mL)
Please state the figure in µg/mL; there is no need to write the unit.

Could you share which MIC value was measured for `CC[C@H]1OC(=O)[C@H](C)C(=O)[C@H](C)[C@@H](O[C@@H]2O[C@H](C)C[C@H](N(C)C)[C@H]2O)[C@](C)(OC(=O)NCc2cn(-c3ncccn3)cn2)C[C@@H](C)C(=O)[C@H](C)[C@H]2NC(=O)O[C@@]21C` ? 16

----------
System: E. coli OC2605
Assay: MIC, microdilution broth method (NCCLS)
Assay type: cell-based
Details: A: E. coli OC2605, 35° C., 16-20 hours
Description: Minimal inhibitory concentration (MIC) has been an indicator of in vitro antibacterial activity widely used in the art. The in vitro antimicrobial activity of the compounds was determined by the microdilution broth method following the test method from the National Committee for Clinical Laboratory Standards (NCCLS). […] Following inoculation of the microdilution trays, the trays are incubated at 35° C. for 16-20 hours and then read. […]
Recorded metric: MIC

Substance smiles: CC[C@H]1OC(=O)[C@H](C)C(=O)[C@H](C)[C@@H](O[C@@H]2O[C@H](C)C[C@H](N(C)C)[C@H]2O)[C@](C)(OC(=O)NC/C=C/c2cnn(-c3ccccc3)c2)C[C@@H](C)C(=O)[C@H](C)[C@H]2NC(=O)O[C@@]21C
Reported result: >16 µg/mL
//
Substance smiles: CC[C@H]1OC(=O)[C@H](C)C(=O)[C@H](C)[C@@H](O[C@@H]2O[C@H](C)C[C@H](N(C)C)[C@H]2O)[C@](C)(OC(=O)NCc2ccccc2)C[C@@H](C)C(=O)[C@H](C)[C@H]2NC(=O)O[C@@]21C
Reported result: >16 µg/mL
//
Substance smiles: CC[C@H]1OC(=O)[C@H](C)C(=O)[C@H](C)[C@@H](O[C@@H]2O[C@H](C)C[C@H](N(C)C)[C@H]2O)[C@](C)(OC(=O)NC/C=C/c2ccc(-c3ncccn3)cc2)C[C@@H](C)C(=NO)[C@H](C)[C@H]2NC(=O)O[C@@]21C
Reported result: 16 µg/mL

Then this molecule:
Could you share which MIC value was measured for `CC[C@H]1OC(=O)[C@H](C)C(=O)[C@H](C)[C@@H](O[C@@H]2O[C@H](C)C[C@H](N(C)C)[C@H]2O)[C@](C)(OC(=O)NCCc2ccccc2)C[C@@H](C)C(=O)[C@H](C)[C@H]2NC(=O)O[C@@]21C` ? >16 µg/mL

----------
System: E. coli OC2605
Experiment: MIC, microdilution broth method (NCCLS)
Type: cell-based
Details: A: E. coli OC2605, 35° C., 16-20 hours
Protocol: Minimal inhibitory concentration (MIC) has been an indicator of in vitro antibacterial activity widely used in the art. The in vitro antimicrobial activity of the compounds was determined by the microdilution broth method following the test method from the National Committee for Clinical Laboratory Standards (NCCLS). […] Following inoculation of the microdilution trays, the trays are incubated at 35° C. for 16-20 hours and then read. […]
Recorded metric: MIC (µg/mL)
Please state the figure in µg/mL; there is no need to write the unit.

Could you share which MIC value was measured for CC[C@H]1OC(=O)[C@H](C)C(=O)[C@H](C)[C@@H](O[C@@H]2O[C@H](C)C[C@H](N(C)C)[C@H]2O)[C@](C)(OC(=O)NCc2ccc(-c3ncccn3)cc2F)C[C@@H](C)C(=O)[C@H](C)[C@H]2NC(=O)O[C@@]21C [Compound 87] ? 16

----------
system: E. coli OC2605; assay: MIC, microdilution broth method (NCCLS); type: cell-based; conditions: A: E. coli OC2605, 35° C., 16-20 hours
Catalogue of MIC values

These solved cases illustrate the format of a correct answer.
Compound: CC[C@H]1OC(=O)[C@H](C)C(=O)[C@H](C)[C@@H](O[C@@H]2O[C@H](C)C[C@H](N(C)C)[C@H]2O)[C@](C)(OC(=O)NCCNCc2cccnc2)C[C@@H](C)C(=O)[C@H](C)[C@H]2NC(=O)O[C@@]21C
MIC: >16 µg/mL
--
Compound: CC[C@H]1OC(=O)[C@H](C)C(=O)[C@H](C)[C@@H](O[C@@H]2O[C@H](C)C[C@H](N(C)C)[C@H]2O)[C@](C)(OC(=O)NCc2ccc(-n3cccn3)c(OC)c2)C[C@@H](C)C(=O)[C@H](C)[C@H]2NC(=O)O[C@@]21C
MIC: >16 µg/mL
--
Compound: CC[C@H]1OC(=O)[C@H](C)C(=O)[C@H](C)[C@@H](O[C@@H]2O[C@H](C)C[C@H](N(C)C)[C@H]2O)[C@](C)(OC(=O)NCCNC(=O)c2ccc(-c3ccccc3)cc2)C[C@@H](C)C(=O)[C@H](C)[C@H]2NC(=O)O[C@@]21C
MIC: >16 µg/mL
--
Compound: CC[C@H]1OC(=O)[C@H](C)C(=O)[C@H](C)[C@@H](O[C@@H]2O[C@H](C)C[C@H](N(C)C)[C@H]2O)[C@](C)(OC(=O)NCc2ccc(-n3cccn3)cc2F)C[C@@H](C)C(=O)[C@H](C)[C@H]2NC(=O)O[C@@]21C
MIC: 16 µg/mL

Could you share which MIC value was measured for `CC[C@H]1OC(=O)[C@H](C)C(=O)[C@H](C)[C@@H](O[C@@H]2O[C@H](C)C[C@H](N(C)C)[C@H]2O)[C@](C)(OC(=O)NCCOCc2ccc(-c3ncccn3)cc2)C[C@@H](C)C(=O)[C@H](C)[C@H]2NC(=O)O[C@@]21C` ? >16 µg/mL

Could you share which MIC value was measured for `CC[C@H]1OC(=O)[C@H](C)C(=O)[C@H](C)[C@@H](O[C@@H]2O[C@H](C)C[C@H](N(C)C)[C@H]2O)[C@](C)(OC(=O)NC/C=C/c2cccc(-c3ncccn3)c2)C[C@@H](C)C(=O)[C@H](C)[C@H]2NC(=O)O[C@@]21C` ? >16 µg/mL

Could you share which MIC value was measured for CCC1OC(=O)C(C)(F)C(=O)C(C)C(OC2OC(C)CC(N(C)C)C2O)C(C)(OC(=O)NCC=Cc2ccc3ncccc3c2)CC(C)C(=O)C(C)C2NC(=O)OC12C (centres unmarked) ? 8 µg/mL

Could you share which MIC value was measured for `CC[C@H]1OC(=O)[C@H](C)C(=O)[C@H](C)[C@@H](O[C@@H]2O[C@H](C)C[C@H](N(C)C)[C@H]2O)[C@](C)(OC(=O)NC/C=C/c2ccc(-n3ccnc3)cc2)C[C@@H](C)C(=O)[C@H](C)[C@H]2NC(=O)O[C@@]21C` ? 8 µg/mL
